The origin of these recorded values is patent USRE39616E1.

- Tested on: mice
- Experimental Conditions: mouse, in vivo
Answer each item with its documented Therapeutic Ratio LD/AC.

Incoming: In one line, give reported Therapeutic Ratio LD/AC of the entry C#CCNC1CCc2cccc(OC(=O)N(C)C)c21 (centres unmarked) .
Outgoing: 10

Incoming: Identify the reported Therapeutic Ratio LD/AC for the following entry. C#CCNC1CCc2c(OC(=O)N(C)C)cccc21 (centres unmarked)
Outgoing: 5.7

Incoming: Assign Therapeutic Ratio LD/AC to the following record: C#CCNC1CCc2ccc(OC(=O)N(C)CCCC)cc21 (centres unmarked)
Outgoing: 23

Incoming: Query Therapeutic Ratio LD/AC for C#CCN(C)C1CCc2ccc(OC(=O)N(C)C)cc21 (centres unmarked)
Outgoing: 9.3

Incoming: Tell me its Therapeutic Ratio LD/AC given C#CCN(C)C1CCc2cccc(OC(=O)N(C)C)c21 (centres unmarked) as the entry.
Outgoing: 9.0

---

Provide the recorded MAO-B Inhibition Ex vivo ED50 for the entries that follow.
- Measured On: MAO-B (Mus musculus)
- Construct: from tissue; host or cells: mouse brain
- Sequence (Q8BW75 whole entry): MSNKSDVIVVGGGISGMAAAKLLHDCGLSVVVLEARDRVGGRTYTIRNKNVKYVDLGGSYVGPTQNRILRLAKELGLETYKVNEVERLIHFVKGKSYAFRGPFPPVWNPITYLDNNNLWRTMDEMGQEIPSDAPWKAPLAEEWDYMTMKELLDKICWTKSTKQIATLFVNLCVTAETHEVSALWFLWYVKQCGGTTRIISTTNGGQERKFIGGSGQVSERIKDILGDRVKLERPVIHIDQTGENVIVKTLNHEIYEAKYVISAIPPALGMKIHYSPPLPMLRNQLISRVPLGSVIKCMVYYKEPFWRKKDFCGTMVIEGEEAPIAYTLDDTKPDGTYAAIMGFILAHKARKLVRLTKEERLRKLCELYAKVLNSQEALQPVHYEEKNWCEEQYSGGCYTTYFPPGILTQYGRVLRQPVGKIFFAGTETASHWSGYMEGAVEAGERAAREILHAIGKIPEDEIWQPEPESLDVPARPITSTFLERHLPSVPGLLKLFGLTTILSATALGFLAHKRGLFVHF
- Test Name: Inhibition of MAO activity ex vivo (brain)
- Format: in vivo, mice
- Experimental Conditions: mice, brain tissue

Incoming: Give MAO-B (Mus musculus) MAO-B Inhibition Ex vivo ED50 for the following molecule: C#CCNC1CCc2ccc(OC(=O)N(C)C)cc21 (single isomer, unassigned) [Compound 55]
Outgoing: >100 µmol/kg

Incoming: Look up MAO-B (Mus musculus) data: MAO-B Inhibition Ex vivo ED50 of C#CCNC1CCc2ccc(OC(=O)N(C)c3ccccc3)cc21 (centres unmarked) , then report it.
Outgoing: >>200 μmoles/kg

Incoming: Under MAO-B (Mus musculus): report MAO-B Inhibition Ex vivo ED50 of C#CCNC1CCc2ccc(OC(=O)N(C)CCC)cc21 (centres unmarked) .
Outgoing: 333 µmol/kg

Incoming: State, for MAO-B (Mus musculus), measured MAO-B Inhibition Ex vivo ED50 of the molecule listed here: CNC1CCc2ccc(OC(=O)N(C)C)cc21 (centres unmarked)
Outgoing: >>50 μmoles/kg

Incoming: Report the value of MAO-B Inhibition Ex vivo ED50 obtained on MAO-B (Mus musculus) for C#CCN(CC)C1CCc2ccc(OC(=O)N(C)C)cc21 (centres unmarked) .
Outgoing: >100 µmol/kg

---

- Measured On: whole brain AChE (Mus musculus, UniProt P21836)
- Experimental Conditions: mouse, in vivo
Structures can show the parent of a compound that is named as a salt.
Assay Endpoint: AChE Inhibition Time to return to 50% of peak t

Incoming: Tell us which AChE Inhibition Time to return to 50% of peak t value is on record for CCN(C)C(=O)Oc1cccc2c1C(N)CC2 (centres unmarked)
Outgoing: >120 min

Incoming: Let me know recorded AChE Inhibition Time to return to 50% of peak t for CNC1CCc2ccc(OC(=O)N(C)C)cc21 (centres unmarked) , thanks.
Outgoing: >60 min

Incoming: Supply AChE Inhibition Time to return to 50% of peak t value. Item: C#CCNC1CCc2ccc(OC(=O)N(C)CC)cc21 (centres unmarked) [Compound 25, HCl]
Outgoing: >180 min

Incoming: Note down AChE Inhibition Time to return to 50% of peak t recorded for CCN(C)C(=O)Oc1ccc2c(c1)C(N)CC2 (centres unmarked) [Compound 3, 6-(N-Me,N-Et Carbamyloxy) aminoindan HCl]
Outgoing: >180 min

Incoming: Please report AChE Inhibition Time to return to 50% of peak t for the following compound: CN(C)C(=O)Oc1ccc2c(c1)C(N)CC2 (centres unmarked)
Outgoing: >120 min

---

- Measured On: Human erythrocyte acetylcholinesterase (Homo sapiens, UniProt P22303)
- Construct: Human erythrocyte acetylcholinesterase (type XIII, Sigma Israel); purchased Sigma Israel type XIII; host or cells: human erythrocytes
- Sequence (P22303 32-617 isoform P22303-2 limits assumed): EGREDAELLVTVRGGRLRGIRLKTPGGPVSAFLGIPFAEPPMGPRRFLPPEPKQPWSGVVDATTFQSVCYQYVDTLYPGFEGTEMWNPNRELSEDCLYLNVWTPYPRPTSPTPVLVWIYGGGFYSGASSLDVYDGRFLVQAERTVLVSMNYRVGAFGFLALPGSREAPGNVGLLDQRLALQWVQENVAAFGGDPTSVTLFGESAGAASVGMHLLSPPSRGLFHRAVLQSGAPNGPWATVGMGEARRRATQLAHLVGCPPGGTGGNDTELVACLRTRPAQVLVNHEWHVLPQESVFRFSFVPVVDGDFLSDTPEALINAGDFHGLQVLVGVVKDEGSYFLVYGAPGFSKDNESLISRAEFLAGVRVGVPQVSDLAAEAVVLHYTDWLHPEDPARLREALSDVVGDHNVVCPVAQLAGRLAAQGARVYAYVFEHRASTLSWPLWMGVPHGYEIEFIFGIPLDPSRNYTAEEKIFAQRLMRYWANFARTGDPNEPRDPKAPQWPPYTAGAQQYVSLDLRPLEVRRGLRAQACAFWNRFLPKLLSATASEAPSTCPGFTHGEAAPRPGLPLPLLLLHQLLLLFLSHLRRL
- Test Name: biochemical
- Format: biochemical
- Experimental Conditions: human erythrocyte AChE; at time of peak activity; read-out: AChE Inhibition In vitro IC50
Assay Endpoint: IC50 (µM)
Just the number please, in µM, no unit attached.

Incoming: Give the observed IC50 of C#CCNC1CCc2ccc(OC(=O)N(CC)C3CCCCC3)cc21 (stereo not shown) for Human erythrocyte acetylcholinesterase (Homo sapiens, UniProt P22303).
Outgoing: 17

Incoming: Please report IC50 with Human erythrocyte acetylcholinesterase (Homo sapiens, UniProt P22303) for item C#CCNC1CCc2cccc(OC(=O)N(C)CCC)c21 (stereo not shown) .
Outgoing: 100

Incoming: Find the measured IC50 of C#CCNC1CCc2ccc(OC(=O)N(CC)CCCC)cc21 (stereo not shown) with Human erythrocyte acetylcholinesterase (Homo sapiens, UniProt P22303) as test system.
Outgoing: 80

Incoming: Please look at C#CCNC1CCc2ccc(OC(=O)NCC)cc21 (stereo not shown) and tell me its recorded IC50 on Human erythrocyte acetylcholinesterase (Homo sapiens, UniProt P22303).
Outgoing: 11.5

---

- Measured On: MAO-A (Rattus norvegicus)
- Test Name: Inhibition of MAO activity in vitro, 5-HT as substrate
- Format: biochemical
- Set-up: The MAO enzyme source was a homogenate of rat brain in 0.3M sucrose; from tissue; host or cells: rat brain homogenate, 600 g supernatant
- Experimental Conditions: MAO-A Inhibition In vitro IC50
Counter-ions that a name gives are not always drawn.
Assay Endpoint: IC50

Incoming: Return value of IC50 for input C#CCNC1CCc2ccc(OC(=O)N(C)CC)cc21 (stereo not shown) [Compound 25, HCl] , no commentary.
Outgoing: 270 µM

---

- Measured On: whole brain AChE (Mus musculus, UniProt P21836)
- Sequence (P21836 32-614): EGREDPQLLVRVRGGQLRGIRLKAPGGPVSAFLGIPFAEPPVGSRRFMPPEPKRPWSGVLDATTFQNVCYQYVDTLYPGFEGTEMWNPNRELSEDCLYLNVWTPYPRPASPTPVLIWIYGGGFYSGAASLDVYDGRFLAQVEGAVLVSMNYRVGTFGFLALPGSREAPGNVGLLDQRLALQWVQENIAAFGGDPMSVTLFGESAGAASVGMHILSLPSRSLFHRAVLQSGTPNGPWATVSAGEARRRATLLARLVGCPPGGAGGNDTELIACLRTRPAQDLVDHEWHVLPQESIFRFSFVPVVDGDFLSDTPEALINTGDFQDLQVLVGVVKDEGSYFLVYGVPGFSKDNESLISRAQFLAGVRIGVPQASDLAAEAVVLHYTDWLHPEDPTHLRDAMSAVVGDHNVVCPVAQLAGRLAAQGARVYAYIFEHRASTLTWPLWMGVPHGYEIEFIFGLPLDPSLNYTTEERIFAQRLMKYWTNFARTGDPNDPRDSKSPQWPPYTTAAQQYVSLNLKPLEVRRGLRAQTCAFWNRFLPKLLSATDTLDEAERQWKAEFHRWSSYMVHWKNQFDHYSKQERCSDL
- Experimental Conditions: mice, whole brain; at peak of activity
For each record, write down the corresponding AChE Inhibition Ex vivo ED50 (AC).

Incoming: Fill in AChE Inhibition Ex vivo ED50 (AC) for record CNC1CCc2cccc(OC(=O)N(C)C)c21 (centres unmarked)
Outgoing: 19 µmol/kg

Incoming: Provide only the value of recorded AChE Inhibition Ex vivo ED50 (AC) for CNC1CCc2ccc(OC(=O)N(C)C)cc21 (centres unmarked)
Outgoing: 10.0 µmol/kg

Incoming: Give AChE Inhibition Ex vivo ED50 (AC) for C#CCNC1CCc2ccc(OC(=O)N(C)C3CCCCC3)cc21 (centres unmarked)
Outgoing: >1000 µmol/kg

Incoming: Report AChE Inhibition Ex vivo ED50 (AC), nothing else, for this molecule: C#CCNC1CCc2cccc(OC(=O)N(C)C)c21 (centres unmarked)
Outgoing: 30 µmol/kg

Incoming: Return value of AChE Inhibition Ex vivo ED50 (AC) for input C#CCNC1CCc2ccc(OC(=O)N(C)Cc3ccccc3)cc21 (centres unmarked) , no commentary.
Outgoing: 140 µmol/kg

---

- Measured On: MAO-A (Rattus norvegicus, UniProt P21396)
- Sequence (P21396 whole entry): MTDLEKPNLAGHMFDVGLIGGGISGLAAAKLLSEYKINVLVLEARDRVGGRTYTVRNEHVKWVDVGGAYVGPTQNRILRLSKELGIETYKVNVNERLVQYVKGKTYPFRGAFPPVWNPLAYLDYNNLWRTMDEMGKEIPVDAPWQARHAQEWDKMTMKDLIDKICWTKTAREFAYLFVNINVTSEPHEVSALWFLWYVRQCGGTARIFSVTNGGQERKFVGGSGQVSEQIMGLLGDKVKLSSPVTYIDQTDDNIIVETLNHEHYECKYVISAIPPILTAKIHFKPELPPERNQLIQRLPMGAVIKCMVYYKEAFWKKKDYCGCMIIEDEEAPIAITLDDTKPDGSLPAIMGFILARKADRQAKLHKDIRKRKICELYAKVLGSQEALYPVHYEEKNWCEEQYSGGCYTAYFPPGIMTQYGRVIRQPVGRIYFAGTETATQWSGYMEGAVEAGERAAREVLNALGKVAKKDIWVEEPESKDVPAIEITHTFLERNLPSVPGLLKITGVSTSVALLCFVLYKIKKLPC
- Test Name: Inhibition of MAO activity in vitro, 5-HT as substrate
- Type: biochemical
- Parameters: The MAO enzyme source was a homogenate of rat brain in 0.3M sucrose; from tissue; host or cells: rat brain homogenate, 600 g supernatant
- Experimental Conditions: MAO-A Inhibition In vitro IC50, rat brain homogenate, 5-HT substrate
Field: IC50. Provide a value for each of the compounds that follow.

Incoming: Given the compound C#CCN(C)C1CCc2cccc(OC(=O)N(C)C)c21 (stereo not shown) [Compound 32] , write its reported IC50.
Outgoing: 190 µM

Incoming: Give me measured IC50, please, for this compound: C#CCNC1CCc2ccc(OC(=O)N(C)C)cc21 (stereo not shown) [Compound 23]
Outgoing: 800 µM

Incoming: Kindly indicate its recorded IC50. Item: C#CCNC1CCc2ccc(OC(=O)N(C)CCC)cc21 (stereo not shown) [Compound 26]
Outgoing: 114 µM

Incoming: Could you please provide reported IC50 for C#CCNC1CCc2ccc(OC(=O)NCCC)cc21 (stereo not shown) [Compound 57] ? Thanks!
Outgoing: 89 µM
